B1: TCEB3B (parent)
chain: STTALGDKQRKANESKGTRESWDS

# Variants of: B1
# testName: protein stability index of a GFP-peptide fusion (GPS, HEK-293T) (PSI 1-6); higher = more stable;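 note: lentivirally expressed fusions sorted by FACS into six bins by GFP to DsRed ratio, PSI derived from sequencing read proportions per bin multiplied by bin number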
# recordedConditions: c terminus: a fixed tail appended
assayMetric: protein stability index

>>> measuredresult("STTALGDKQRSANESKGTRESWDS [K11S]")
4.03
>>> measuredresult("STTALGDKQRKANESIGTRESWDS [K16I]")
3.95
>>> measuredresult("STTALGDIQRKANESKGTRESWDS [K8I]")
3.98
